# assayText: Oral bioavailability in mouse at 7.7 mg/kg
# Assay type: ADME, organism-based
# assayContext: in vivo
reportedMetric: bioavailability (%)

- COc1cc(C(F)(F)F)cc(SC)c1C(=O)N[C@@]1(c2ccccc2)CCCN(C)C1: 100

----------
# assayText: Intrinsic clearance in human liver microsomes
# Assay type: ADME
# assayContext: read-out: CLH
reportedMetric: microsomal CLint (µL/min/mg)

- COc1cc(C(F)(F)F)cc(SC)c1C(=O)N[C@@]1(c2ccccc2)CCCN(C)C1: 19

----------
# experimentalSystem: Sodium- and chloride-dependent glycine transporter 1 (Mus musculus)
# Sequence (P28571 whole entry): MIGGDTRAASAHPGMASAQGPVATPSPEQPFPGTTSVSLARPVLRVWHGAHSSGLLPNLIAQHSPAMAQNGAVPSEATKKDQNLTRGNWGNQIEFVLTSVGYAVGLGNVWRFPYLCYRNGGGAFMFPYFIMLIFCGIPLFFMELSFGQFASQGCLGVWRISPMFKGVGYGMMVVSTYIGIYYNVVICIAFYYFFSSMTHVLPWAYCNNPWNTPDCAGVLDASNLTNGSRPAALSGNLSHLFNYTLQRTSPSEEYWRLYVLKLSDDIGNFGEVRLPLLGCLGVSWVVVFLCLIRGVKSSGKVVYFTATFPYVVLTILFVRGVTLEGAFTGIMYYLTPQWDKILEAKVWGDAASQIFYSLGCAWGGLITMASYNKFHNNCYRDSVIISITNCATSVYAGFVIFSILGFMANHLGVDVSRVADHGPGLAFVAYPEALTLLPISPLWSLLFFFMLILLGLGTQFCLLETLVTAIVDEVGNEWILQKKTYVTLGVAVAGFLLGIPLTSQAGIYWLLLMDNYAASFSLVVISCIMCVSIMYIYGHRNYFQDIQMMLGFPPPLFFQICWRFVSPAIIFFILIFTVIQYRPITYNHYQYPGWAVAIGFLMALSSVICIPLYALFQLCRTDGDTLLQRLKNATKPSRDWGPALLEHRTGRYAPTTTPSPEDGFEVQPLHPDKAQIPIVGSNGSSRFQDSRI
# assayText: Inhibition of mouse GlyT1
pEC50: −log10 of the molar value.
reportedMetric: pEC50

• COc1cc(C(F)(F)F)cc(SC)c1C(=O)N[C@@]1(c2ccccc2)CCCN(C)C1 = 8.30

----------
# assayText: Volume of distribution at steady state in mouse at 1.7 mg/kg, iv
# Format: ADME, organism-based
# Parameters: dose 1.7 mg/kg, route intravenous
# assayContext: in vivo, read-out: Vdss
reportedMetric: Vd (L/kg)

* COc1cc(C(F)(F)F)cc(SC)c1C(=O)N[C@@]1(c2ccccc2)CCCN(C)C1 | 8

----------
# assayText: Clearance in mouse at 1.7 mg/kg, iv
# Assay type: ADME, organism-based
# Set-up: dose 1.7 mg/kg, route intravenous
# assayContext: in vivo
reportedMetric: clearance (mL/min/kg)

- COc1cc(C(F)(F)F)cc(SC)c1C(=O)N[C@@]1(c2ccccc2)CCCN(C)C1: 54

----------
Reported log10 of EC50 values are given for each entry in this list.
# experimentalSystem: Sodium- and chloride-dependent glycine transporter 1 (Homo sapiens)
# Sequence (P48067 whole entry): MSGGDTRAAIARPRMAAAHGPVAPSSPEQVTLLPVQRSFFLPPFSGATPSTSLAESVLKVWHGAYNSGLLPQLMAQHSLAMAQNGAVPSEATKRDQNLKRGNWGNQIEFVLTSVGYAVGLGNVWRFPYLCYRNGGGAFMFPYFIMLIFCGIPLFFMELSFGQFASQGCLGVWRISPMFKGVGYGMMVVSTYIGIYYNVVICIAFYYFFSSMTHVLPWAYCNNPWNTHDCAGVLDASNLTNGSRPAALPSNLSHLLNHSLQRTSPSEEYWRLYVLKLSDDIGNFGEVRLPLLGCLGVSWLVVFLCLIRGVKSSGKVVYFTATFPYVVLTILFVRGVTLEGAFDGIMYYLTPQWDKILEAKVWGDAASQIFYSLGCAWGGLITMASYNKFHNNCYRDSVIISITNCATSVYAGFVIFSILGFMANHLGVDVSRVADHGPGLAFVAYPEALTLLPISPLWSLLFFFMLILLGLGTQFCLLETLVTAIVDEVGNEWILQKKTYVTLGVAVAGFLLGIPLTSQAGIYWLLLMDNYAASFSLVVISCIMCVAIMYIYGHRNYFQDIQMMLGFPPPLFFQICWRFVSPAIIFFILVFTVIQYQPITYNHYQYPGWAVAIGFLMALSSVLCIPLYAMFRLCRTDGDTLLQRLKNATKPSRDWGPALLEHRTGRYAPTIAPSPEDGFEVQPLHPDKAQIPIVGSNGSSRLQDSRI
# assayText: Inhibition of human GlyT1 expressed in cells assessed as [3H]glycine uptake
reportedMetric: log10 of EC50 (log10 of the value in nM)

- COc1cccc(C(F)(F)F)c1C(=O)NC1(c2ccccc2)CCCN(C)C1 (racemic): 3.18
- COc1cc(C(F)(F)F)cc(SC)c1C(=O)N[C@]1(c2ccccc2)CCCN(C)C1: 2.26
- COc1cc(C(F)(F)F)cc(SC)c1C(=O)NC1(c2ccc(C)cc2)CCCN(C)C1 (racemic): 2.36
- CN1CCCC(NC(=O)c2ccc(Cl)cc2Cl)(c2ccccc2)C1 (racemic): 2.83
- COc1cc(C(F)(F)F)cc(SC)c1C(=O)NC1(c2ccccc2)CCCN(C)C1 (racemic): 1.38
- COc1cc(C(F)(F)F)cc(SC)c1C(=O)NC1(c2ccncn2)CCCN(C)C1 (racemic): 3.23
- COc1cc(C(F)(F)F)cc(C(F)(F)F)c1C(=O)NC1(c2ccccc2)CCCN(Cc2ccccc2)C1 (racemic): 3.83
- COc1cc(C(F)(F)F)cc(SC)c1C(=O)NC1(c2ccc(F)cc2)CCCN(C)C1 (racemic): 1.41
- CN1CCCC(NC(=O)c2ccc(C(F)(F)F)cc2F)(c2ccccc2)C1 (racemic): 4.00

----------
# experimentalSystem: hERG (KCNH2) (Homo sapiens, UniProt Q12809)
# Sequence (Q12809 whole entry): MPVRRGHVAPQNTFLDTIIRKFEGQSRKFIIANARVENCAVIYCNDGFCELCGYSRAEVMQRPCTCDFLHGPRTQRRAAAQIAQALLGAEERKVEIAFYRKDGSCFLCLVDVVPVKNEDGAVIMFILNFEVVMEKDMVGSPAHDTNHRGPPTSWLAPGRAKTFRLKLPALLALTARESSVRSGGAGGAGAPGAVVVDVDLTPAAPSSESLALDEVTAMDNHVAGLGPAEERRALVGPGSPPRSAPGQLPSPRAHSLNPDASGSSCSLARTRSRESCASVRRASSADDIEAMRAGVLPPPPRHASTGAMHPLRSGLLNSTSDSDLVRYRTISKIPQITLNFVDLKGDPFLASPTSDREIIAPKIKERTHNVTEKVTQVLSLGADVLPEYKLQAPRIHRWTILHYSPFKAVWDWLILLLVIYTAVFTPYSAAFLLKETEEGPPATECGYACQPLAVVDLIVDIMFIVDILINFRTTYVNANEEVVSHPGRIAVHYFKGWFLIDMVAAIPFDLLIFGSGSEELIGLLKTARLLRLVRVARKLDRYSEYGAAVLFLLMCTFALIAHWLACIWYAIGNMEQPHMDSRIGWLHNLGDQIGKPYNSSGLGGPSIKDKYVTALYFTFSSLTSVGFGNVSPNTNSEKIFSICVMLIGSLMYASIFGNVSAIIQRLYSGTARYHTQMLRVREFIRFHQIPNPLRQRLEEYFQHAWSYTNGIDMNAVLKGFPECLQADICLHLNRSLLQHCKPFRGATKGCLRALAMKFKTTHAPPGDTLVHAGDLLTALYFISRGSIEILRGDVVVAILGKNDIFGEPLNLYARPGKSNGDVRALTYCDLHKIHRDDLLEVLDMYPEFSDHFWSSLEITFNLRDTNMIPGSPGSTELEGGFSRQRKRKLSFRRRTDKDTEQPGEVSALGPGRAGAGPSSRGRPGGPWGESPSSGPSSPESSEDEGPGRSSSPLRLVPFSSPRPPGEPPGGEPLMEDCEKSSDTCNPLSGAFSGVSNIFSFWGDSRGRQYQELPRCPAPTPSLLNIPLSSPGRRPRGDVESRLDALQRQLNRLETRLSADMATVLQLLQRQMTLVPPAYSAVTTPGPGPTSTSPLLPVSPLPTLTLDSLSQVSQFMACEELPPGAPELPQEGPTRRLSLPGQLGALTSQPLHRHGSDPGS
# assayText: Inhibition of human ERG channel by Patch clamp assay
reportedMetric: IC20

* COc1cc(C(F)(F)F)cc(SC)c1C(=O)N[C@@]1(c2ccccc2)CCCN(C)C1 | 5.4 µM

----------
# assayText: Octanol-phosphate buffer partition coefficient, log D of the compound at pH 7.4
# Format: physicochemical
reportedMetric: logD

- COc1cc(C(F)(F)F)cc(SC)c1C(=O)N[C@@]1(c2ccccc2)CCCN(C)C1: 3.12

----------
# assayText: Permeability of the compound by PAMPA
# Assay type: physicochemical
# assayContext: read-out: permeability
reportedMetric: Papp (×10⁻⁶ cm/s)

• COc1cc(C(F)(F)F)cc(SC)c1C(=O)N[C@@]1(c2ccccc2)CCCN(C)C1 = 7.4

----------
# Test system: MDR1A (P-gp)
# assayText: Efflux ratio of permeability in pig LLC-PK1 cells expressing mouse MDR1A
# Type: ADME, cell-based, Sus scrofa
reportedMetric: efflux ratio

• COc1cc(C(F)(F)F)cc(SC)c1C(=O)N[C@@]1(c2ccccc2)CCCN(C)C1 = 1.5

----------
Reported log10(EC50) values are given for each entry in this list.
# experimentalSystem: Sodium- and chloride-dependent glycine transporter 1 (Homo sapiens, UniProt P48067)
# assayText: Inhibition of human GlyT1 expressed in cells assessed as [3H]glycine uptake
# Format: cell-based
reportedMetric: log10(EC50) (log10 of the value in nM)

* COc1cc(C(F)(F)F)ccc1C(=O)NC1(c2ccccc2)CCCN(C)C1 (racemic) | 3.68
* CN1CCCC(NC(=O)c2ccc(C(F)(F)F)cc2Br)(c2ccccc2)C1 (racemic) | 2.48
* COc1cc(C(F)(F)F)cc(SC)c1C(=O)NC1(c2ccc(Cl)cc2)CCCN(C)C1 (racemic) | 1.45
* COc1cc(C(F)(F)F)cc(SC)c1C(=O)NC1(c2cccc(Cl)c2)CCCN(C)C1 (racemic) | 1.40
* COc1cc(C(F)(F)F)cc(C(F)(F)F)c1C(=O)NC1(c2ccccc2)CCCN(CC2CC2)C1 (racemic) | 2.58
* Cc1cc(C(F)(F)F)ccc1C(=O)NC1(c2ccccc2)CCCN(C)C1 (racemic) | 2.51
* COc1cc(C(F)(F)F)cc(SC)c1C(=O)NC1(c2ccncc2)CCCN(C)C1 (racemic) | 1.78

----------
# experimentalSystem: Sodium- and chloride-dependent glycine transporter 1 (Homo sapiens, UniProt P48067)
# assayText: Inhibition of human GlyT1 expressed in cells assessed as [3H]glycine uptake
pEC50: −log10 of the molar value.
Reported pEC50 values are given for each entry in this list.
reportedMetric: pEC50

* COc1cc(C(F)(F)F)cc(C(F)(F)F)c1C(=O)NC1(c2ccccc2)CCCN(C(=O)c2ccccc2)C1 (racemic) | < 5.00
* COc1cc(C(F)(F)F)cc(SC)c1C(=O)NC1(c2ncccn2)CCCN(C)C1 (racemic) | < 5.00
* COc1cc(C(F)(F)F)cc(C(F)(F)F)c1C(=O)NC1(c2ccccc2)CCCN(S(C)(=O)=O)C1 (racemic) | < 5.00
